Just for reference, paper PMC10786891 is where these values come from.

Molecular target: T1, EsCas13d, nuclease-dead (Eubacterium siraeum, UniProt B0MS50, R295A;H300A;R849A;H854A)
T1 sequence: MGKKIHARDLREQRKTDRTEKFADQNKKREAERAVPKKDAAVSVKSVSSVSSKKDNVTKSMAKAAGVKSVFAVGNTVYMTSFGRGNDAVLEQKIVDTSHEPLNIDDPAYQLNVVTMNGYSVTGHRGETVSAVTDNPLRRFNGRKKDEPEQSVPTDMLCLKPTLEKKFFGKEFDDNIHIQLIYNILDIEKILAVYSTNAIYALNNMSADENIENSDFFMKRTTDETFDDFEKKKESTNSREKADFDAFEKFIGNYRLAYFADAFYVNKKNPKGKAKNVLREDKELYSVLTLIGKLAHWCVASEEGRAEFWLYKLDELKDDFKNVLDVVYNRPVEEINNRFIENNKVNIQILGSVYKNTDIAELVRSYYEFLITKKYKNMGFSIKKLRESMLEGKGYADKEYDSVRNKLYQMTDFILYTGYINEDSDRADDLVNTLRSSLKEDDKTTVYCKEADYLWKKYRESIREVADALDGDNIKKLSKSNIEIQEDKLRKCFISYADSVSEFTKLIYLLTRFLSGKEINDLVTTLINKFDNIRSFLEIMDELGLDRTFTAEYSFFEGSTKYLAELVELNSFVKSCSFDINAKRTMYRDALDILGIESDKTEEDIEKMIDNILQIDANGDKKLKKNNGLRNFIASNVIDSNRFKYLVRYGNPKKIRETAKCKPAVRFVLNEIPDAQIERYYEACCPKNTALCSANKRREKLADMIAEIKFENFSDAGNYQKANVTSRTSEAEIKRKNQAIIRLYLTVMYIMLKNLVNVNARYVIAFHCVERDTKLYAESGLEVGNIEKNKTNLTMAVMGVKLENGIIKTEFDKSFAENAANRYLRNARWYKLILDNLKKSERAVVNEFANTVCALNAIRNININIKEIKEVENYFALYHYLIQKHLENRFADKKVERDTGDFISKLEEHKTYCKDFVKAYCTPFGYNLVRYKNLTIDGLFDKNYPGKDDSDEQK
Experiment: crRNA (strand 1, pre-loaded); Mg2+; 40 mM Tris-HCl pH 7.5, 150 mM NaCl, 6 mM MgCl2, 1 mM DTT, 0.1% Tween-20, 0.2 mg/ml BSA; 25 C; 10 min per concentration, then washed
Conditions: tags: His6-TwinStrep-SUMO cleaved; N-terminal SNAP kept (SNAP-Surface 488); label: 3' end held by stalled T7 RNA polymerase
Kd strictly under 10 nM means condition met; at 10 nM or over means condition not met.

// known answers, use as guide
target 1 insU 3' of 13,insU 3' of 4 (mixed) RNA 1: CACCCGUGCAAAAAUGCAGGGGUCUAAAACUGAGCGGAUAACCUCUCUAUGG RNA 2: GGGAAUGGAUCCACAUCUACGAAUUCGUACCAUAGAGAGUGUUAUCCGCUUCACCGAGAUCGGAAGAGCACACGU :: condition not met
target 2 MT 5'PFS AGG 3'PFS AGU (mixed) RNA 1: CACCCGUGCAAAAUUGCAGGGGUCUAAAACCUUCUCCAAAUUGUUUCAUCCU RNA 2: GGGAAUGGAUCCACAUCUACGAAUUCAGGAGGAUGAAACAAUUUGGAGAAGAGUAGAUCGGAAGAGCACACGU :: condition met
target 1 MT 5'PFS GCA 3'PFS UAU (mixed) RNA 1: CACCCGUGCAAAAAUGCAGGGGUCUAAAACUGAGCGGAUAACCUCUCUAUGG RNA 2: GGGAAUGGAUCCACAUCUACGAAUUCGCACCAUAGAGAGGUUAUCCGCUCAUAUAGAUCGGAAGAGCACACGU :: condition not met
target 1 insG 3' of 21,insG 3' of 8 (mixed) RNA 1: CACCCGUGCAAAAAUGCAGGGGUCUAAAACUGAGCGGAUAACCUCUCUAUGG RNA 2: GGGAAUGGAUCCACAUCUACGAAUUCGUACCGAUAGAGAGGUUAUGCCGCUCACCGAGAUCGGAAGAGCACACGU :: condition not met
target 1 insA 3' of 11,insU 3' of 4 (mixed) RNA 1: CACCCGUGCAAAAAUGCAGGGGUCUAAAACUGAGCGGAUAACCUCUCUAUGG RNA 2: GGGAAUGGAUCCACAUCUACGAAUUCGUACCAUAGAGAGGUAUAUCCGCUUCACCGAGAUCGGAAGAGCACACGU :: condition not met

Dear colleague, could you confirm whether Kd of target 1 insU 3' of 15,insU 3' of 4 (mixed) RNA 1: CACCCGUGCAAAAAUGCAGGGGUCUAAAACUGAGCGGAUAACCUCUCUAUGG RNA 2: GGGAAUGGAUCCACAUCUACGAAUUCGUACCAUAGAGUAGGUUAUCCGCUUCACCGAGAUCGGAAGAGCACACGU falls below 10 nM? Thanks. condition met

Dear colleague, could you confirm whether Kd of target 1 C4G,U10A (mixed) RNA 1: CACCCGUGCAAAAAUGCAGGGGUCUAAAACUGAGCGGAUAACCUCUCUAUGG RNA 2: GGGAAUGGAUCCACAUCUACGAAUUCGUACCAUAGAGAGGUAAUCCGGUCACCGAGAUCGGAAGAGCACACGU falls below 10 nM? Thanks. condition met

Dear colleague, could you confirm whether Kd of target 1 C4U,U10C (mixed) RNA 1: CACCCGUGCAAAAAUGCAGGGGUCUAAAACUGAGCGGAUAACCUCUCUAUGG RNA 2: GGGAAUGGAUCCACAUCUACGAAUUCGUACCAUAGAGAGGUCAUCCGUUCACCGAGAUCGGAAGAGCACACGU falls below 10 nM? Thanks. condition not met
